Reference source: patent US20240270821A1

Some substances, each annotated with its measured pEC50.
- Test System: human GcgR (Homo sapiens)
- Sequence (P47871 26-477): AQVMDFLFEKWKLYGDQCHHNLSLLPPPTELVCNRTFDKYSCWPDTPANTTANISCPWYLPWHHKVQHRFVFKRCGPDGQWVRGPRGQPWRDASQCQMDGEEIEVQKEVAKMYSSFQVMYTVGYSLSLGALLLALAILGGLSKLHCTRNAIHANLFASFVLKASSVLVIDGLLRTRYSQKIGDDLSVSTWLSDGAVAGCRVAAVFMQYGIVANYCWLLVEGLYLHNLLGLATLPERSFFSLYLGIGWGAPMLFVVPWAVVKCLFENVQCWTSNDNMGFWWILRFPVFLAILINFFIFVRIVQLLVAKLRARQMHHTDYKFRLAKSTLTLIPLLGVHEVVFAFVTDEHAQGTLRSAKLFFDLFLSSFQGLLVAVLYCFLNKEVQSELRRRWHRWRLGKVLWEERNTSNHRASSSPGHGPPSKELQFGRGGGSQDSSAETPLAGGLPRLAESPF
- Test Protocol: Functional cAMP activity in the presence of 1% HSA
- Format: cell-based
- Condition Description: read-out: cAMP Rel EC50, hGcgR
Starred links: 1 amine or outer side, 2 acyl side, 3 side chain; linkers in the order of their positions; H or OH if unused. Non-standard residues stand in square brackets, D forms with d. Groups on a side chain read outwards from the residue. *: point of attachment. C20 diacid = O=C(O)CCCCCCCCCCCCCCCCCCC(=O)*; C18 diacid = O=C(O)CCCCCCCCCCCCCCCCC(=O)*; αMePhe(2-F) = C[C@](N)(Cc1ccccc1F)C(=O)O; γGlu = O=C(O)[C@H](CCC(=O)[*:2])N[*:1]; αMeY = C[C@](N)(Cc1ccc(O)cc1)C(=O)O; 4Pal = N[C@@H](Cc1ccncc1)C(=O)O; αMeL = CC(C)C[C@](C)(N)C(=O)O; αMeS = C[C@](N)(CO)C(=O)O; Orn = NCCC[C@H](N)C(=O)O; AEEA = NCCOCCOCC(=O)O; Aib = CC(C)(N)C(=O)O
Keep it numeric: pEC50 is minus log10 of the concentration in mol/L.

Look over these answered cases.
- H-Y[Aib]QGT[αMePhe(2-F)]TSD[4Pal][αMeS]I[αMeL]LD[Orn]K([γGlu-γGlu-C18 diacid])AQ[Aib][Orn]FI[dE][αMeY]LIEGGPSSGEPPPSEG-NH2 [Example 480]: 7.18
- H-Y[Aib]QGTFTSDYSI[αMeL]LDKIAAK([AEEA-AEEA-γGlu-C20 diacid])QFVQWLIE[Aib]GPSSGEPPPSEG-NH2 [Example 323]: 5.84

Recorded pEC50 of H-Y[Aib]QGTFTSD[4Pal]SK[αMeL]LDKK([AEEA-γGlu-C18 diacid])AQ[Aib]AFIEYLIE[Aib]GPSSGAPPPSGSE-NH2 [Example 901] , please.
5.94
